- procedure details: Viability qHTS for spleen associated tyrosine kinase inhibitor (SYKi) naive MV4-11 cells (AID 1963823); also: nearly all actives have a fitted effect of over 40% in size; also: potency is read from the fitted curve at half-maximal effect
- condition set: MV4-11 AML viability, CellTiter-Glo luminescence, 72 h; series mostly up to 45 µM
Results filed as inconclusive are left out. The source made the active and inactive calls. Calls follow the shape of the dose curve; as a rule, active = well fitted cell-killing curve with a large enough effect; inconclusive = small, poorly fitted or top-dose-only effect, or effect the other way; inactive = no such curve, though single readings can be large or run the other way.
endpoint name: Potency

Some solved entries appear below for comparison.
INSERT INTO results (compound, endpoint_name, test_value) VALUES
  ('CC(C)Cn1cnc2c1c(=O)n(C)c(=O)n2C', 'Potency', 'inactive'),
  ('CC1(C)OC2=C(C(=O)c3ccccc3C2=O)[C@H](NCc2ccccc2)[C@@H]1O', 'Potency', '2.63 µM (active)'),
  ('NC(CO)(CO)CCc1ccc(Sc2cccc(OCc3ccccc3)c2)cc1Cl', 'Potency', '7.42 µM (active)'),
  ('Cc1c[nH]c2nccc(Oc3c(F)cc(Nc4cc(Cl)nc(N)n4)cc3F)c12', 'Potency', '0.517 µM (active)'),
  ('CC(NCCc1ccc(O)cc1)C(O)c1ccc(O)cc1 (configuration not stated)', 'Potency', 'inactive'),
  ('C=CCc1ccc(O[C@@H]2O[C@H](CO)[C@@H](O)[C@H](O)[C@H]2O)c(OC)c1', 'Potency', 'inactive');

Task item: Which Potency is listed for Nc1ccc(F)cc1NC(=O)c1ccc(CNC(=O)/C=C/c2cccnc2)cc1 ?
Reply: 1.66 µM (active)

====

- procedure details: Quantitative highthroughput screen to assess conditional lethalithy of NOMO1 cells grown in RPMI1640 with untreated serum (RPMI+s) (AID 1963876); also: nearly all actives have a fitted effect of over 35% in size; also: potency is read from the fitted curve at half-maximal effect
- condition set: NOMO1 AML cells in RPMI+serum, CellTiter-Glo viability, 48 h; series mostly up to 45.8 µM
Results filed as inconclusive are left out. The source made the active and inactive calls. Calls come from the whole dose curve; as a rule, active = well fitted cell-killing curve with a large enough effect; inconclusive = small, poorly fitted or top-dose-only effect; inactive = flat fitted curve, though single readings scatter.
endpoint name: Potency

Record excerpt, results attached:
INSERT INTO measurements (structure_smiles, test_value) VALUES
  ('CO[C@H]1C=CO[C@@]2(C)Oc3c(C)c(O)c4c(O)c(c5c(c4c3C2=O)NC2(CCN(CC(C)C)CC2)N=5)=NC(=O)C(C)=CC=C[C@H](C)[C@H](O)[C@@H](C)[C@@H](O)[C@@H](C)[C@H](OC(C)=O)[C@H]1C', 'inactive'),
  ('C[C@]12CC[C@@H]3c4ccc(O)cc4CC[C@H]3[C@H]1[C@@H](O)[C@@H](O)[C@H]2O', 'inactive'),
  ('Cc1c(-c2cccc3c(CCCOc4cccc5ccccc45)c(C(=O)O)n(Cc4cccnc4)c23)c(COc2ccc(N3CCN([S+](=O)([O-])N(C)C)CC3)cc2)nn1C', 'inactive'),
  ('N#Cc1ccnc(N2C(=O)CC[C@H]2C(=O)N(c2cncc(F)c2)[C@H](C(=O)NC2CC(F)(F)C2)c2ccccc2Cl)c1', '2340 nM (active)');

Then there is this compound:
Task item: Give its Potency value. Item: CCOC(=O)C1=C[C@@H](OC(CC)CC)[C@H](NC(C)=O)[C@@H](N)C1
Reply: inactive

====

- procedure details: Quantitative highthroughput screen to assess conditional lethalithy of P12 Ichikawa cells grown in RPMI1640 with untreated serum (RPMI+s) (AID 1963881); also: nearly all actives have a fitted effect of over 35% in size; also: potency is read from the fitted curve at half-maximal effect
- condition set: ATP luminescence, 48 h; viability; series mostly up to 45.8 µM
- Protocol: Assay Provider: Jason Cantor Ph.D. Department of Biochemistry University of Wisconsin-Madison, Madison, WI, USA Chemical screening studies have identified drug sensitivities across hundreds of cancer cell lines but most putative therapeutics fail to translate. […] Sets of conditional anticancer compounds spanned phases of clinical development and included non-oncology drugs were assessed. […] 6; Detection; Luminescence, Viewlux PerkinElmer. […]
Records with an inconclusive call do not appear. Active and inactive are the calls of the source. Calls follow the shape of the dose curve; as a rule, active = well fitted cell-killing curve with a large enough effect; inconclusive = small, poorly fitted or top-dose-only effect; inactive = flat fitted curve, though single readings scatter.
endpoint name: Potency

The cases that follow already have their Potency on record.
INSERT INTO results (molecule, endpoint_name, test_value) VALUES
  ('Nc1ncnc2c1ncn2[C@@H]1O[C@H](CO)C[C@@H]1O', 'Potency', 'inactive'),
  ('CC(C=CC=C(C)C=CC1=C(C)CCCC1(C)C)=CC=CC=C(C)C=CC=C(C)C=CC1=C(C)CCCC1(C)C', 'Potency', 'inactive'),
  ('CC[C@]1(O)C[C@@H]2CN(CCc3c([nH]c4ccccc34)[C@@](C(=O)OC)(c3cc4c(cc3OC)N(C=O)[C@@H]3C45CCN4CC=C[C@](CC)([C@H]45)[C@@H](OC(C)=O)[C@]3(O)C(=O)OC)C2)C1 (some centres undefined)', 'Potency', 'inactive'),
  ('Cc1n[nH]c(C)c1Cc1sc2c(c1C(=O)N1C[C@H](O)CO1)c(=O)n(C)c(=O)n2CC(C)C', 'Potency', 'inactive'),
  ('Nc1nc(NCCNc2ncc(-n3ccnc3)c(-c3ccc(Cl)cc3Cl)n2)ccc1[N+](=O)[O-]', 'Potency', 'inactive'),
  ('CC(C)(O)CNc1nc(Nc2ccnc(C(F)(F)F)c2)nc(-c2cccc(C(F)(F)F)n2)n1', 'Potency', '2.95 µM (active)'),
  ('COc1ccc(C(=O)CC2(O)C(=O)Nc3c(Cl)ccc(Cl)c32)cc1 (centres undefined)', 'Potency', '4.69 µM (active)'),
  ('CC1(C)C(=O)N(CCN2CCC(C(=O)c3ccc(F)cc3)CC2)c2ccccc21', 'Potency', 'inactive');

Task item: Potency for Oc1ccc(C2=Cc3ccc(O)cc3OC2)cc1 ?
Reply: 2.96 µM (active)
